Reported values of logLD50 for individual entries
# Test system: Mus musculus
# MEASUREMENT_NOTES: Toxicity in po dosed Mus musculus (mouse)
# Assay type: organism-based
# Parameters: unit not given here
# MEASUREMENT_SETUP: in vivo
Reply briefly: the number, and no unit.

Solved cases (4 shown):
>  <SMILES_STRING>
CCN1C[C@@]2(COC)[C@H]3[C@@H](OC)[C@@H]4C1[C@]3([C@@H](OC)C[C@H]2OC(C)=O)[C@@H]1C[C@]2(OC(C)=O)[C@@H](OC)C[C@@]4(OC(C)=O)[C@H]1[C@H]2OC(=O)c1ccccc1

>  <READING>
1.34

$$$$
>  <SMILES_STRING>
Br.CCN1C[C@]2(COC)[C@H](O)C[C@H](OC)[C@]34C1[C@@H]([C@H](OC)[C@H]23)[C@]1(O)[C@H]2[C@@H](OC(=O)c3ccccc3)[C@](O)(C[C@H]24)[C@@H](OC)[C@@H]1O

>  <READING>
1.41

$$$$
>  <SMILES_STRING>
CCN1C[C@]2(COC)CC[C@H](O)[C@]34C1[C@@](O)([C@@H](OC)[C@H]23)[C@@]1(O)C[C@H](OC)[C@H]2C[C@@H]4[C@@H]1[C@H]2O

>  <READING>
2.04

$$$$
>  <SMILES_STRING>
CCN1C[C@]2(COC)[C@H](O)C[C@H](OC)[C@]34C1[C@@H]([C@H](OC)[C@H]23)[C@]1(OC(C)=O)[C@H]2[C@@H](OC(=O)c3ccccc3)[C@](O)(C[C@]24O)[C@@H](OC)[C@@H]1O

>  <READING>
-0.66

$$$$

// below: logLD50 requested for another compound
Could you share which logLD50 value was measured for `CCN1C[C@@]2(COC)[C@H]3[C@@H](OC)[C@@H]4C1[C@]3([C@@H](OC)C[C@H]2OC(C)=O)[C@@H]1C[C@@]2(OC(C)=O)[C@H](OC(C)=O)[C@@H]1[C@]4(OC(C)=O)[C@@H](OC(C)=O)[C@@H]2OC` ?
2.83

====

# System: Mus musculus
# MEASUREMENT_NOTES: Toxicity in po dosed Mus musculus (mouse)
# Format: organism-based
# Set-up: unit not given here
# MEASUREMENT_SETUP: in vivo
Classify by measured logLD50: label 1 if it is equal to or exceeds 0.8, label 0 if it is smaller.

Reference set, count: 5
>  <SMILES_STRING>
CCN1C[C@]2(COC(=O)c3ccccc3N3C(=O)C[C@H](C)C3=O)CC[C@H](OC)[C@]34C1[C@@](O)([C@@H](OC)[C@H]23)[C@@]1(O)C[C@H](OC)[C@H]2C[C@@H]4[C@@H]1[C@H]2OC

>  <CLASS_NAME>
label 0

$$$$
>  <SMILES_STRING>
CCN1C[C@@]2(COC)[C@H]3[C@@H](OC)[C@@H]4C1[C@]3([C@@H](OC)C[C@H]2OC(C)=O)[C@@H]1C[C@@]2(OC(C)=O)[C@H](OC(=O)c3ccccc3)[C@@H]1[C@]4(OC(C)=O)[C@@H](OC(C)=O)[C@@H]2OC

>  <CLASS_NAME>
label 1

$$$$
>  <SMILES_STRING>
CCN1C[C@]2(COC)[C@H](O)C[C@H](OC)[C@]34C1[C@@H]([C@H](OC)[C@H]23)[C@]1(O)[C@H]2[C@@H](OC(=O)c3ccccc3)[C@](O)(C[C@H]24)[C@@H](OC)[C@@H]1O

>  <CLASS_NAME>
label 1

$$$$
>  <SMILES_STRING>
CCN1C[C@]2(COC)[C@H](O)C[C@H](OC)[C@]34C1[C@@H]([C@H](OC)[C@H]23)[C@@]1(OC(C)=O)C[C@H](OC)[C@@]2(O)C[C@@H]4[C@@H]1[C@H]2OC(=O)c1ccc(OC)c(OC)c1

>  <CLASS_NAME>
label 1

$$$$
>  <SMILES_STRING>
CCN1C[C@]2(OC(=O)c3ccccc3NC(C)=O)CC[C@H](OC)[C@]34C1[C@@H](C[C@H]23)[C@@]1(OC(C)=O)C[C@H](OC)[C@H]2C[C@@H]4[C@]1(OC(C)=O)[C@H]2OC

>  <CLASS_NAME>
label 1

$$$$

Check this molecule for logLD50 at or above 0.8: `CCN1C[C@]2(COC)CC[C@H](OC)[C@]34C1[C@@H](C[C@H]23)[C@@]1(O)C[C@H](OC)[C@H]2C[C@@H]4[C@@H]1[C@H]2O`
label 0

Check this molecule for logLD50 at or above 0.8: `CCN1C[C@]2(COC(=O)c3ccccc3N3C(=O)C[C@H](C)C3=O)CC[C@H](OC)[C@@]34C1[C@@]1(OCO[C@@]15C[C@H](OC)[C@H]1C[C@@H]3[C@@H]5[C@H]1OC)[C@@H](OC)[C@H]24`
label 0

Check this molecule for logLD50 at or above 0.8: `COC[C@]12CN(C)C3[C@H]4[C@H](OC)[C@H]1[C@@]3([C@@H](OC)C[C@H]2O)[C@@H]1C[C@@]2(O)[C@H](OC(=O)c3ccccc3)[C@@H]1[C@]4(OC(C)=O)[C@@H](OC)[C@@H]2O`
label 0

Check this molecule for logLD50 at or above 0.8: `CCN1C[C@]2(COC)[C@H](O)C[C@H](OC)[C@]34C1[C@@H]([C@H](OC)[C@H]23)[C@@]1(O)C[C@H](OC)[C@@]2(O)C[C@@H]4[C@@H]1[C@H]2OC(=O)c1ccccc1`
label 1

Check this molecule for logLD50 at or above 0.8: `CCN1C[C@]2(OC(=O)c3ccccc3NC(C)=O)CC[C@H](OC)[C@]34C1[C@@H](C[C@H]23)[C@@]1(O)C[C@H](OC)[C@H]2C[C@@H]4[C@]1(O)[C@H]2OC`
label 1

====

Reported values of logLD50 for individual entries
# Test system: Mus musculus
# MEASUREMENT_NOTES: Toxicity in po dosed Mus musculus (mouse)
# Assay type: organism-based
# Set-up: unit not given here
# MEASUREMENT_SETUP: in vivo
Reply briefly: the number, and no unit.

Could you share which logLD50 value was measured for CCN1C[C@]2(COC)[C@H](O)C[C@H](OC)[C@]34C1[C@@H]([C@H](OC)[C@H]23)[C@]1(OC(C)=O)[C@H]2[C@@H](OC(=O)c3ccccc3)[C@](O)(C[C@H]24)[C@@H](OC)[C@@H]1O (stereo in doubt; 1) ?
-0.92

Could you share which logLD50 value was measured for `COC[C@]12CN(C)C3[C@H]4[C@H](OC)[C@H]1[C@@]3([C@@H](OC)C[C@H]2O)[C@@H]1C[C@@]2(O)[C@H](OC(=O)c3ccccc3)[C@@H]1[C@]4(O)[C@@H](O)[C@@H]2OC` ?
1.32

Could you share which logLD50 value was measured for `COC[C@@]12CC[C@H](OC)[C@]34C([C@@H]([C@H](OC)[C@H]13)[C@]1(O)[C@H]3[C@@H](OC(=O)c5ccccc5)[C@](O)(C[C@H]34)[C@@H](OC)[C@@H]1O)N(C)C2` ?
1.36

Could you share which logLD50 value was measured for `Br.CCN1C[C@]2(COC)[C@H](O)C[C@H](OC)[C@]34C1[C@@H]([C@H](OC)[C@H]23)[C@]1(OC(C)=O)[C@H]2[C@@H](OC(=O)c3ccccc3)[C@](O)(C[C@H]24)[C@@H](OC)[C@@H]1O` ?
-0.87

Could you share which logLD50 value was measured for `Br.COC[C@]12CN(C)C3[C@H]4[C@H](OC)[C@H]1[C@@]3([C@@H](OC)C[C@H]2O)[C@@H]1C[C@@]2(O)[C@H](OC(=O)c3ccccc3)[C@@H]1[C@]4(O)[C@@H](O)[C@@H]2OC` ?
1.38

====

# System: Mus musculus
# MEASUREMENT_NOTES: Toxicity in po dosed Mus musculus (mouse)
# Assay type: organism-based
# Design: unit not given here
# MEASUREMENT_SETUP: in vivo
READOUT_TYPE: logLD50

Solved cases (2 shown):
>  <SMILES_STRING>
CCN1C[C@]2(C)CC[C@H](OC)[C@@]34C1[C@@]1(OCO[C@@]15C[C@H](OC)[C@H]1C[C@]3(O)[C@@H]5[C@H]1OC)[C@@H](OC(C)=O)[C@H]24

>  <READING>
2.12

$$$$
>  <SMILES_STRING>
CCN1C[C@]2(COC)CC[C@H](O)[C@]34C1[C@@](O)([C@@H](OC)[C@H]23)[C@@]1(O)C[C@H](OC)[C@H]2C[C@@H]4[C@@H]1[C@H]2OC.Cl

>  <READING>
2.07

$$$$

// below: logLD50 requested for another molecule
Kindly state the measured logLD50 obtained for `CCN1C[C@@H]2CC[C@H](OC)[C@]34C1[C@@H](C[C@H]23)[C@@]1(O)C[C@@H](OC)[C@@]2(O)C[C@@H]4[C@@H]1[C@H]2OC(=O)c1ccccc1` with Mus musculus.
1.45
